Data origin: ChEMBL document CHEMBL4043187

TARGET OF ASSAY: Cyclin-dependent kinase 5/CDK5 activator 1 (Homo sapiens, UniProt Q00535)
Sequence (Q00535 whole entry): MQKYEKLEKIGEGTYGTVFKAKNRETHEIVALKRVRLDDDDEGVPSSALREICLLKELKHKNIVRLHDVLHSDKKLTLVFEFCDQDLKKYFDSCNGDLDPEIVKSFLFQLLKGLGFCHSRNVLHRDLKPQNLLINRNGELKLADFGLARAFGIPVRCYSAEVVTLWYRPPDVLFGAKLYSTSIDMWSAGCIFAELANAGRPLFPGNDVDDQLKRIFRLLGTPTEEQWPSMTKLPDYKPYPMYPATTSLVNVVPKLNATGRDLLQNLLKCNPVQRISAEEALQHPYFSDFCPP
Sequence (Q15078 whole entry, further chain): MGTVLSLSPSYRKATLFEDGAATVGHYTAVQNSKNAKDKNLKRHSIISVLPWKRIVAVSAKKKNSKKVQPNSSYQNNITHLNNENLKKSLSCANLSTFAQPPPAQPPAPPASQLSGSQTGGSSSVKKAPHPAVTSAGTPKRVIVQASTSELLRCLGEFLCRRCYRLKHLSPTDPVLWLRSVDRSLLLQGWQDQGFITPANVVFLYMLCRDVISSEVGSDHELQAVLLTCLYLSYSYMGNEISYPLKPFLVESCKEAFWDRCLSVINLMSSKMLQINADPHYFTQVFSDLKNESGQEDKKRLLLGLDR
MEASUREMENT DESCRIPTION: Inhibition of CDK5/p35 (unknown origin) using ULingt-4E-BP as substrate after 1 hr in presence of ATP by fluorescence assay
pIC50: −log10 of the molar value.
REPORTED PROPERTY: pIC50

SUBSTANCE SMILES: Cc1cccc(C(=O)N[C@H]2C[C@@H](n3cnc4c(NCc5ccc(F)cc5)ncnc43)C2)n1
TARGET OF ASSAY: Cyclin-dependent kinase 5/CDK5 activator 1 (Homo sapiens, UniProt Q00535)
pIC50: 7.52

[A] CC(=O)N[C@H]1CC[C@H](Nc2ncnc3c2ncn3[C@H]2C[C@@H](NC(=O)c3cccc(C)n3)C2)CC1
[B] Cc1cccc(C(=O)N[C@H]2C[C@@H](n3cnc4c(NCC5CCNCC5)ncnc43)C2)n1
Problem: Compare pIC50: is it lower for A or for B ? Let me know the label of the one you choose.
Result: B

###

TARGET OF ASSAY: Cyclin-dependent kinase 5/CDK5 activator 1 (Homo sapiens) (UniProt Q00535+Q15078)
MEASUREMENT DESCRIPTION: Inhibition of CDK5/p35 (unknown origin) using ULingt-4E-BP as substrate at 25 nM after 1 hr in presence of ATP by fluorescence assay relative to control
Type: protein-complex assay
REPORTED PROPERTY: inhibition

Please review the entries below; each comes with its answer.
SUBSTANCE SMILES: Cc1cccc(C(=O)N[C@H]2C[C@@H](n3cnc4c(NC5CCN(S(C)(=O)=O)CC5)ncnc43)C2)n1
inhibition: 48%
//
SUBSTANCE SMILES: CN(C)c1cccc(C(=O)N[C@H]2C[C@@H](n3cnc4c(NCc5cccnc5)ncnc43)C2)c1
inhibition: < 50%
//
SUBSTANCE SMILES: Cc1cccc(C(=O)N[C@H]2C[C@@H](n3cnc4c(NCc5ccc(Oc6ccccc6)cc5)ncnc43)C2)n1
inhibition: < 50%
//
SUBSTANCE SMILES: O=C(N[C@H]1C[C@@H](n2cnc3c(NCc4cccnc4)ncnc32)C1)c1ccncc1
inhibition: < 50%

Problem: For the record "O=C(N[C@H]1C[C@@H](n2cnc3c(NCc4cccnc4)ncnc32)C1)c1c(F)cccc1F" , what value of inhibition is listed for Cyclin-dependent kinase 5/CDK5 activator 1 (Homo sapiens) (UniProt Q00535+Q15078)?
Result: 57%

Problem: Let us now turn to "COc1ccccc1CNc1ncnc2c1ncn2[C@H]1C[C@@H](NC(=O)c2cccc(C)n2)C1"
Result: < 50%

###

TARGET OF ASSAY: CDK2/Cyclin A2 (Homo sapiens, UniProt P24941)
MEASUREMENT DESCRIPTION: Inhibition of CDK2/CyclinA (unknown origin) using ULingt-4E-BP as substrate after 1 hr in presence of ATP by fluorescence assay
REPORTED PROPERTY: IC50 (nM)

SUBSTANCE SMILES: O=C(N[C@H]1C[C@@H](n2cnc3c(NCc4cccnc4)ncnc32)C1)c1cccc(C(F)(F)F)n1
TARGET OF ASSAY: CDK2/Cyclin A2 (Homo sapiens, UniProt P24941)
ENDPOINT UNIT: nM
IC50: 14

[a] Cc1cccc(C(=O)N[C@H]2C[C@@H](n3cnc4c(NCC5CCNCC5)ncnc43)C2)n1
[b] CC(=O)N1CCC(Nc2ncnc3c2ncn3[C@H]2C[C@@H](NC(=O)c3cccc(C)n3)C2)CC1
Problem: Compare IC50: is it lower for a or for b ? Let me know the label of the one you choose.
Result: a
(a: 48 nM, b: 474 nM)

[P] CC(=O)N[C@H]1CC[C@H](Nc2ncnc3c2ncn3[C@H]2C[C@@H](NC(=O)c3cccc(C)n3)C2)CC1
[Q] O=C(N[C@H]1C[C@@H](n2cnc3c(NCc4cccnc4)ncnc32)C1)c1cccc(-c2ccccc2)n1
[R] Cc1cccc(C(=O)N[C@H]2C[C@@H](n3cnc4c(NCC5CCN(C(=O)OC(C)(C)C)CC5)ncnc43)C2)n1
Problem: Reorder the items by IC50, least to greatest. Submit the labels in the order that the ranking request calls for.
Result: Q, P, R
(Q: 38 nM, P: 160 nM, R: 376 nM)

[A] Cc1cccc(C(=O)N[C@H]2C[C@@H](n3cnc4c(NCc5cccc(Br)c5)ncnc43)C2)n1
[B] Cc1cccc(C(=O)N[C@H]2C[C@@H](n3cnc4c(NCc5ccc(F)cc5)ncnc43)C2)n1
Problem: Rank A against B by their IC50 values and give the higher one. Let me know the label of the one you choose.
Result: B
(B: 5.4 nM, A: 2.1 nM)
